# credit: the supplement of paper PMC10567573

B1: CDC25A (parent)
chain: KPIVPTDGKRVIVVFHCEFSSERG

variants of: B1; test: protein stability index of a GFP-peptide fusion (GPS, HEK-293T) (PSI 1-6); higher = more stable; settings: c terminus: a fixed tail appended;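 further: lentivirally expressed fusions sorted by FACS into six bins by GFP to DsRed ratio, PSI derived from sequencing read proportions per bin multiplied by bin number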
Could you please report measured protein stability index for the items listed next?
Lab note: jot down the number only; don't add units.

Problem: Quick one: protein stability index for `F15G` ?
Result: 2.98

Problem: Quick one: protein stability index for `C17W` ?
Result: 2.91

Problem: Quick one: protein stability index for `K9R` ?
Result: 2.92

Problem: Quick one: protein stability index for `F15T` ?
Result: 2.92

Problem: Quick one: protein stability index for `P5W` ?
Result: 3.01

Problem: Quick one: protein stability index for `V11I` ?
Result: 3.01
